From: patent US20230203185A1

Tested System: T1, porcine CD163 with deletion of SRCR domain 5 on porcine alveolar macrophages (porcine, UniProt Q2VL90 47-1115)
T1 construct: also called PAM CD163-d5; pPAMΔ5 domain
T1 sequence: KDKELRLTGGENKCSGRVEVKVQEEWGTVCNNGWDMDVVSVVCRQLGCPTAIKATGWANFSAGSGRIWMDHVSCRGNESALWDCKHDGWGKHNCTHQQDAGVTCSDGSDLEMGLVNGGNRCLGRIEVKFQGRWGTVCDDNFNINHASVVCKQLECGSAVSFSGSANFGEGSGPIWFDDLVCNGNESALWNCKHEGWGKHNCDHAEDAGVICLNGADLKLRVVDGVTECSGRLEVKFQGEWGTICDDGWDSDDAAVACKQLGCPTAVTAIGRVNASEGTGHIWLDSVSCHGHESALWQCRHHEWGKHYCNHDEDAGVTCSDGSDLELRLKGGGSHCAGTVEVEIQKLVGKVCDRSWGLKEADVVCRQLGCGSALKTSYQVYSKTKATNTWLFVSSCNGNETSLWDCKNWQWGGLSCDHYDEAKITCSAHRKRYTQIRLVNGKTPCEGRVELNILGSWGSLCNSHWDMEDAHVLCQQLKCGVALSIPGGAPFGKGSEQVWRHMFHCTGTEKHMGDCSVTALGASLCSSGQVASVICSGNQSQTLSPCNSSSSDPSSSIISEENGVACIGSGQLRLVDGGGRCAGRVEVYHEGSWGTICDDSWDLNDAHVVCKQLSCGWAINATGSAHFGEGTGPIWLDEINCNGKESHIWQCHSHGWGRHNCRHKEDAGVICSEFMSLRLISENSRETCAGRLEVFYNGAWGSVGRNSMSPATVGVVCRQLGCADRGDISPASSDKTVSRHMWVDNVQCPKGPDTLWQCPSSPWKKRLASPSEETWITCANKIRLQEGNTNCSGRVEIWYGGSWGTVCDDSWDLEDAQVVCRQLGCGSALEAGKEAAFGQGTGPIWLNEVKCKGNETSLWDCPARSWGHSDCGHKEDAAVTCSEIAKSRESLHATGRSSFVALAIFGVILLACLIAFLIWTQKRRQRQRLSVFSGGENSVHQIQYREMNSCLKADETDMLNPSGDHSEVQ
Assay Details: flow cytometry, PAM CD163-d5
Please note: % Binding exactly at 2% is condition not met. Only values below 2% get condition met.

VHH 023 (4E10) (VHH, Llama single domain antibody; also called 70(#23); VHCDR3 70(#23); not shown: tags: c-myc tag in periplasmic extract (ELISA, FACS); FLAG and His tags in purified VHH (SPR, infection assays)) VHH: QVQLVESGGGLVQAGGSLRLSCVASSRTSSTYAMGWFRQGPGKERDFVAIISFGGTFYADSVKGRFTISRDNAKNTVYLQMNSLKPEDTAVYYCAAGRTLSKRADSYASWGQGTQVTVSS: condition met
VHH 011 (2B06) (VHH, Llama single domain antibody; also called 57(#11); VHCDR3 57(#11); not shown: tags: c-myc tag in periplasmic extract (ELISA, FACS); FLAG and His tags in purified VHH (SPR, infection assays)) VHH: EVQLVESGGGLVQAGGSLRLSCAASGRTLSVYGTGWFRQAPGKEREFVAGISGTTGSTLYADSVKGRFTISRDNAKNTVYLQMNSLKSEDTALYYCAAGGRVYITTSSWAYWGQGTQVTVSS: condition met
VHH 016 (2H11) (VHH, Llama single domain antibody; also called 77(#16); VHCDR3 77(#16); not shown: tags: c-myc tag in periplasmic extract (ELISA, FACS); FLAG and His tags in purified VHH (SPR, infection assays)) VHH: EVQLVESGGGLVQAGGSLRLSCAASGRTFAPGSMGWFRQAPGKEREFVAAHRWSGSAYYADYADSVEGRFTISRDYAKNMVYLQMNSLKPGDTAVYYCAAGVGSAAQYTYWGRGTQVTVSS: condition met
VHH 019 (3E11) (VHH, Llama single domain antibody; also called 47(#19); VHCDR3 47(#19); not shown: tags: c-myc tag in periplasmic extract (ELISA, FACS); FLAG and His tags in purified VHH (SPR, infection assays)) VHH: QVQLQESGGGLVQVGSSLRLSCVTSGRTPSRYVMGWFRQAPGQEREFVAAISWSGRAPYADSVKGRFTISRDNAKNTVYLQMNSLKPEDTGVYYCAGGEGAIKWTTLDAYDYWGQGTQVTVSS: condition met
VHH 017 (3D03) (VHH, Llama single domain antibody; also called 29(#17); VHCDR3 29(#17); not shown: tags: c-myc tag in periplasmic extract (ELISA, FACS); FLAG and His tags in purified VHH (SPR, infection assays)) VHH: QLQLVESGGGLVQPGGSLRLSCAASGFTLDDYTIGWFRQAPGKEREGVSCINSITSNTYYADSVKGRFTISRDNAKNTVYLQMNSLTAEDTAIYYCAADSGLFSGSSCLKYRAMRFGSWGQGTQVTVSS: condition not met

Determine whether this binder shows % Binding lower than 2% (ties excluded): VHH 012 (2C07) (VHH, Llama single domain antibody; also called 41(#12); VHCDR3 41(#12); not shown: tags: c-myc tag in periplasmic extract (ELISA, FACS); FLAG and His tags in purified VHH (SPR, infection assays)) VHH: QLQLVESGGGLVQAGGSLRLSCVASGRTFSRYAMGWFRQAPGKEREFVAAIAWSTGSTYYANSVKGRFAISGDNAKNTVYLQMNSLKPEDTAVYYCAAETRYCSGFGCLDPRTYGSWGQGTQVTVSS condition not met
